system: Plasmodium falciparum; test: Calibr Malaria Delayed Death Assay SOP; assay type: functional, organism-based; parameters: scale not given: in the data most compounds retested in dose-response had high values; details: concentration 4.99e-06 (unit not given; other assays of the set use mol/L)
The campaign covered roughly 38,000 compounds. About 1,200 (3.2%) showed an effect of 50% or more. The median lay at about -58%. The entries come from a sample that favours strong results as a whole.
outcome_measure: Percent Effect (%)

>>> assay_result("O=C(Cc1ccsc1)N1Cc2nc(CN3CCCCC3)oc2C1.O=C(O)C(F)(F)F")
-52.68
>>> assay_result("O=C1CCCN1CCN1CCCC(c2ccn[nH]2)C1 (configuration not stated)")
13.33
>>> assay_result("Cc1nc(CN2CCCC(N(C)Cc3cnn(C)c3)C2)no1 (configuration not stated)")
-49.27
>>> assay_result("O=C(CN1CCCC(c2ccn[nH]2)C1)Nc1nc2c(s1)CCCC2 (configuration not stated)")
85.91
>>> assay_result("Cc1nc(CN2CCCC(N(C)Cc3c(C)noc3C)C2)no1 (configuration not stated)")
57.32
>>> assay_result("O=C(CCc1cscn1)N1CCCC(c2ccn[nH]2)C1 (configuration not stated)")
-83.54
>>> assay_result("Cc1cc(C2CCCN(CC(=O)N3CCc4ccccc43)C2)n[nH]1 (configuration not stated)")
-86.51

Value source: ChEMBL document CHEMBL3988442
